molecular target: T1, HLA-A*0301 (purified HLA class I molecule) (human); test: inhibition of 125I probe peptide binding to purified HLA; ratio to standard peptide
T1 construct: also called A3
Metric Name: relative binding ratio

INSERT INTO assay_data (binder, reported) VALUES
  ('ETEYHADGGK (also called Her2/neu.874 (10-mer)) [HER2/neu peptide, position 874, 10 amino acids]', '0.0003 ratio (IC50 standard / IC50 test)'),
  ('DLAARNVLVK (also called Her2/neu.845 (10-mer)) [HER2/neu peptide, position 845, 10 amino acids]', '0.0018 ratio (IC50 standard / IC50 test)'),
  ('CVARCPSGVK (also called Her2/neu.596 (10-mer)) [HER2/neu peptide, position 596, 10 amino acids]', '0.022 ratio (IC50 standard / IC50 test)'),
  ('GLGISWLGLR (also called Her2/neu.447 (10-mer)) [HER2/neu peptide, position 447, 10 amino acids]', '0.0037 ratio (IC50 standard / IC50 test)'),
  ('AMPNQAQMR (also called Her2/neu.705 (9-mer)) [HER2/neu peptide, position 705, 9 amino acids]', '0.0004 ratio (IC50 standard / IC50 test)'),
  ('ALESILRRR (also called Her2/neu.890 (9-mer)) [HER2/neu peptide, position 890, 9 amino acids]', '0.0013 ratio (IC50 standard / IC50 test)'),
  ('CAAGCTGPK (also called Her2/neu.240 (9-mer)) [HER2/neu peptide, position 240, 9 amino acids]', '0.0021 ratio (IC50 standard / IC50 test)'),
  ('ESMPNPEGR [HER2/neu peptide, position 280, 9 amino acids]', '0.0003 ratio (IC50 standard / IC50 test)'),
  ('CTGTDMKLR (also called Her2/neu.26 (9-mer)) [HER2/neu peptide, position 26, 9 amino acids]', '0.0002 ratio (IC50 standard / IC50 test)'),
  ('DVRPQPPSPR (also called Her2/neu.1144 (10-mer)) [HER2/neu peptide, position 1144, 10 amino acids]', '0.0003 ratio (IC50 standard / IC50 test)'),
  ('CLLDHVRENR (also called Her2/neu.805 (10-mer)) [HER2/neu peptide, position 805, 10 amino acids]', '0.0003 ratio (IC50 standard / IC50 test)'),
  ('GSGAFGTVYK (also called Her2/neu.727 (10-mer)) [HER2/neu peptide, position 727, 10 amino acids]', '0.066 ratio (IC50 standard / IC50 test)');

src = patent US20040018971A1
